target-desc: soybean lipoxygenase (Glycine max, UniProt P08170)
Construct: purchased Aldrich Chemical Co. Milwaukee, WI, (USA)
procedure-text: In vitro inhibition of soybean LOX
Assay type: biochemical
run-conditions: compounds assayed at 100 µM; n.a. = not active; no = no activity under the experimental conditions
Below is a list of entries, each paired with its recorded inhibition at 100 µM value.
measured-metric: inhibition at 100 µM (%)

>>> observed_value("CC(C)(C)/[N+]([O-])=C/c1ccccc1 [PBN, α-phenyl-N-tert-butylnitrone, reference compound]")
23
>>> observed_value("CC(C)(C)/[N+]([O-])=C/c1ccccc1OCCCN1CCCCC1 [nitrone 6]")
39
>>> observed_value("CC(C)(C)/[N+]([O-])=C/c1cccc(OCCCN2CCCCC2)c1 [nitrone 4]")
37
>>> observed_value("C#CCN1CCN(CCCOc2ccc(/C=[N+](\\[O-])Cc3ccccc3)cc2)CC1 [nitrone 7]")
27.2
>>> observed_value("C#CCN1CCN(CCCOc2ccccc2/C=[N+](\\[O-])C(C)(C)C)CC1 [nitrone 12]")
25
>>> observed_value("C#CCN1CCN(CCCOc2ccc(/C=[N+](\\[O-])C(C)(C)C)cc2)CC1 [nitrone 8]")
23.3

###

// values below are reported IC50
target-desc: UniProt P08170
Sequence (P08170 1-839): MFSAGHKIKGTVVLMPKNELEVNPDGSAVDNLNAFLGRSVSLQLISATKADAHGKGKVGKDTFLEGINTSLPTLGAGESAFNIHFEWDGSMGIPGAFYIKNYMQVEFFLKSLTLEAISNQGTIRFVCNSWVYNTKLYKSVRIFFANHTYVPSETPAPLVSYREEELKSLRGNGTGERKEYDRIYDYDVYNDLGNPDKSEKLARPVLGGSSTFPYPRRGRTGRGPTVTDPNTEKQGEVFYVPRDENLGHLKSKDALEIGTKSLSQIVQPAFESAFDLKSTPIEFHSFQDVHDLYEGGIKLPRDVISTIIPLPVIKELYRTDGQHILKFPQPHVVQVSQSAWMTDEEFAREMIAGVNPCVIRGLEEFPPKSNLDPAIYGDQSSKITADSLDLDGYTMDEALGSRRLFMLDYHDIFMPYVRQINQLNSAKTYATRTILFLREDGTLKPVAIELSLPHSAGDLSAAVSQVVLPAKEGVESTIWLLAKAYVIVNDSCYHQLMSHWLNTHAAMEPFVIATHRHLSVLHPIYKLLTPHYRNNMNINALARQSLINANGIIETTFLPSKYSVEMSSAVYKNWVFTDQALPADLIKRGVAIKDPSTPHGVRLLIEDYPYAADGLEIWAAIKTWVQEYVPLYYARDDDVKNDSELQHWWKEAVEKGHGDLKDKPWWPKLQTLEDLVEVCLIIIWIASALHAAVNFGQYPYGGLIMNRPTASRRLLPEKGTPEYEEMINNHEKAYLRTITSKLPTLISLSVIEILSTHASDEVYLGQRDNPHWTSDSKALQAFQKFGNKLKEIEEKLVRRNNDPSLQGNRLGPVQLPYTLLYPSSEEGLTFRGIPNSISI
measured-metric: IC50

>>> observed_value("[O-]/[N+](=C\\c1ccc(OCCCN2CCCCC2)cc1)Cc1ccccc1 [nitrone 1]")
"60 µM"
>>> observed_value("[O-]/[N+](=C\\c1ccccc1OCCCN1CCCCC1)Cc1ccccc1 [nitrone 5]")
"10 µM"
>>> observed_value("C#CCN1CCN(CCCOc2cccc(/C=[N+](/[O-])Cc3ccccc3)c2)CC1 [nitrone 9]")
"100 µM"

###

procedure-text: Competition of the tested compounds with DMSO for hydroxyl radicals
run-conditions: compounds assayed at 100 µM; n.a. = not active; no = no activity
measured-metric: OH Scav. Capacity (%)

>>> observed_value("C#CCN1CCN(CCCOc2cccc(/C=[N+](\\[O-])C(C)(C)C)c2)CC1")
20
>>> observed_value("C#CCN1CCN(CCCOc2ccccc2/C=[N+](\\[O-])C(C)(C)C)CC1")
9.8
>>> observed_value("C#CCN1CCN(CCCOc2cccc(/C=[N+](/[O-])Cc3ccccc3)c2)CC1")
81
>>> observed_value("C#CCN1CCN(CCCOc2ccc(/C=[N+](\\[O-])C(C)(C)C)cc2)CC1")
78
>>> observed_value("[O-]/[N+](=C\\c1ccc(OCCCN2CCCCC2)cc1)Cc1ccccc1")
7
>>> observed_value("CC(C)(C)/[N+]([O-])=C/c1ccc(OCCCN2CCCCC2)cc1")
54
>>> observed_value("CC(C)(C)/[N+]([O-])=C/c1ccccc1OCCCN1CCCCC1")
13
>>> observed_value("Cc1c(C)c2c(c(C)c1O)CCC(C)(C(=O)O)O2 (centres unmarked) [Trolox, reference compound]")
88
>>> observed_value("[O-]/[N+](=C\\c1ccccc1OCCCN1CCCCC1)Cc1ccccc1")
9
>>> observed_value("CC(C)(C)/[N+]([O-])=C/c1cccc(OCCCN2CCCCC2)c1")
54

###

procedure-text: ABTS+ decolorization assay in ethanolic solution
run-conditions: compounds assayed at 100 µM; n.a. = not active
measured-metric: ABTS+ (%)

>>> observed_value("C#CCN1CCN(CCCOc2cccc(/C=[N+](\\[O-])C(C)(C)C)c2)CC1 [nitrone 10]")
"13%"
>>> observed_value("[O-]/[N+](=C\\c1ccccc1OCCCN1CCCCC1)Cc1ccccc1 [nitrone 5]")
"19%"
>>> observed_value("CC(C)(C)/[N+]([O-])=C/c1cccc(OCCCN2CCCCC2)c1 [nitrone 4]")
"23%"
>>> observed_value("Cc1c(C)c2c(c(C)c1O)CCC(C)(C(=O)O)O2 (stereo not drawn) [Trolox, reference compound]")
"91%"
>>> observed_value("C#CCN1CCN(CCCOc2ccccc2/C=[N+](\\[O-])C(C)(C)C)CC1 [nitrone 12]")
"13%"
>>> observed_value("C#CCN1CCN(CCCOc2ccc(/C=[N+](\\[O-])C(C)(C)C)cc2)CC1 [nitrone 8]")
"10%"

###

procedure-text: ABTS+ decolorization assay in ethanolic solution
run-conditions: compounds assayed at 100 µM; n.a. = not active
Each entry below carries its recorded ABTS+ (%).
measured-metric: ABTS+ (%)

>>> observed_value("[O-]/[N+](=C\\c1cccc(OCCCN2CCCCC2)c1)Cc1ccccc1 [nitrone 3]")
"31%"
>>> observed_value("[O-]/[N+](=C\\c1ccc(OCCCN2CCCCC2)cc1)Cc1ccccc1 [nitrone 1]")
"27%"
>>> observed_value("C#CCN1CCN(CCCOc2ccc(/C=[N+](\\[O-])Cc3ccccc3)cc2)CC1 [nitrone 7]")
"28%"
>>> observed_value("CC(C)(C)/[N+]([O-])=C/c1ccccc1 [PBN, α-phenyl-N-tert-butylnitrone, reference compound]")
"5%"
